- EXPERIMENTAL_TARGET: Prostaglandin G/H synthase 1 (Ovis aries)
- Sequence (P05979 whole entry): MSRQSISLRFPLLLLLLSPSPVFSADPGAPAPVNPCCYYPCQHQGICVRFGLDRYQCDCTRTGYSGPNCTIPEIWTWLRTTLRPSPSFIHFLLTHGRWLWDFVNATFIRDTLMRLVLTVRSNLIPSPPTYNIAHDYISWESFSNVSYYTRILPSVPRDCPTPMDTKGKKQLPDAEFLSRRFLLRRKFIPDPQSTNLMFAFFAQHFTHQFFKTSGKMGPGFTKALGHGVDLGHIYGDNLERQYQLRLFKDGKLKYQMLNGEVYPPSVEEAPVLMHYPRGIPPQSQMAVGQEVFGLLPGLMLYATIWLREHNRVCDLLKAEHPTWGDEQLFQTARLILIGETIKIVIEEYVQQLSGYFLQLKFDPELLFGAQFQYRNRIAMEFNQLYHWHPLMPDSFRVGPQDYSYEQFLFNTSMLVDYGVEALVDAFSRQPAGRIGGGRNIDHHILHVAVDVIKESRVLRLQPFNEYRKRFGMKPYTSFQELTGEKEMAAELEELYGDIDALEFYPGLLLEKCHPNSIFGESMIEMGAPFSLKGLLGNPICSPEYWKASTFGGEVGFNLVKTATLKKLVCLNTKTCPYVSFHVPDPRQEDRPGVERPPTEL
# merged literature set: IC50 with Prostaglandin G/H synthase 1 (Ovis aries)

                                   molecule  property_measured  value_observed
0  COc1ccccc1C1CC(c2cc3ccccc3oc2=O)=NN1C(C)=O (centres undefined)               IC50         > 30 µM
1  CCOC(=O)[C@H](OCc1cnnn1[C@@H](Cc1c[nH]c2ccccc12)C(=O)OC)[C@@H](OCc1cnnn1[C@@H](Cc1c[nH]c2ccccc12)C(=O)OC)C(=O)OCC               IC50         > 10 µM

Exercise: In one line, give reported IC50 of the entry COc1ccc2cc(C(C)C(=O)NN=C3CCCCC3)ccc2c1 (centres undefined) .
Solution: > 25 µM

Exercise: Read off the recorded IC50 for O=C(O)Cn1c2c(c3cc(F)cc(Cl)c31)CN(C(=O)c1cccc(Cl)c1)CC2
Solution: > 10 µM

* * *

Collected set of IC50 measured with Prostaglandin G/H synthase 1 (Ovis aries) across studies.
- EXPERIMENTAL_TARGET: Prostaglandin G/H synthase 1 (Ovis aries)
- Sequence (P05979 whole entry): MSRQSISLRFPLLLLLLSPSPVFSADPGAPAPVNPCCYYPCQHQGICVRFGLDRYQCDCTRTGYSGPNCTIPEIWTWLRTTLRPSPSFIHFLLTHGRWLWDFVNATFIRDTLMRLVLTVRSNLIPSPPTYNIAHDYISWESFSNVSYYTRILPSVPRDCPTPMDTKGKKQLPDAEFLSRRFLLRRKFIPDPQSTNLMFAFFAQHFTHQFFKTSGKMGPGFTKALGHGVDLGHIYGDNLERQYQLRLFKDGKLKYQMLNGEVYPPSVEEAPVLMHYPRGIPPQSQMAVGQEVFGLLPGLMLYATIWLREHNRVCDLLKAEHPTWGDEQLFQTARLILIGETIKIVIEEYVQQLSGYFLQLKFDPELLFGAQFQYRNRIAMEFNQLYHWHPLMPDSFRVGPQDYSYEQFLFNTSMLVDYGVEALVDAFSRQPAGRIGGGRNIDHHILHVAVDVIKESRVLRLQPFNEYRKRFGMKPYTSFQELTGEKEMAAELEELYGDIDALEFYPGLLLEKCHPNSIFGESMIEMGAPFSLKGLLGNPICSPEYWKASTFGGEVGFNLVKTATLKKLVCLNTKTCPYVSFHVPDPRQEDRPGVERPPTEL

Solved cases (3 shown):
                  compound_structure_string  value_observed
0  CCCC/C(=C\c1cc(OCC(c2ccccc2)c2ccccc2)ccc1OCc1ccc(C(F)(F)F)cc1)C(=O)O         > 10 µM
1  NS(=O)(=O)c1ccc(-n2nc(C(F)(F)F)cc2-c2c[nH]c3ccccc23)cc1        > 100 µM
2  O=C(/C(=C/c1ccco1)C(=O)C(F)(F)F)c1ccc(Cl)cc1         > 50 µM

In the following, a different molecule is considered.
Exercise: Read off the recorded IC50 for CC(=O)Oc1ccccc1SC1CCCCCC1
Solution: > 40 µM

* * *

Listed below are compounds with pIC50 for Prostaglandin G/H synthase 1 (Ovis aries), each taken from published literature.
As a rule, pIC50 stands for the negative log10 of the concentration, concentration in M.

                  compound_structure_string  value_observed
0  O=C1c2ccccc2C(=O)N1c1nc2cc([N+](=O)[O-])ccc2n1Cc1cccc(-c2ccccc2)c1            5.01
1  Nc1onc(-c2ccc([N+](=O)[O-])cc2)c1-c1ccc(F)cc1            4.92
2  Cc1ccc(Cl)c(Nc2ccccc2C(=O)NOC(C)(C)C)c1Cl            5.10
3  NS(=O)(=O)c1ccc(-n2nc(C(F)(F)F)cc2-c2ccn(O)c(=O)c2)cc1            4.99

Now examine the next entry.
Exercise: Report pIC50 for COc1ccc(-c2cc(-c3ccc(S(C)(=O)=O)cc3)c(-c3ccc(F)cc3)c(=O)o2)cc1
Solution: 4.97

* * *

Here we gather IC50 data for Prostaglandin G/H synthase 1 (Ovis aries, UniProt P05979) reported by several publications.

Some entries whose results are on file:
>>> print(df.to_string())
                                   compound                       experimental_target  property_measured  value_observed
0  O=C(O)[C@H]1C[C@](O)(c2ccccc2Cl)[C@@H](c2ccccc2Cl)O1 (relative stereo)  Prostaglandin G/H synthase 1 (Ovis aries, UniProt P05979)               IC50         > 10 µM
1  COc1ccc(S(=O)(=O)N(Nc2ccccc2)C(=O)Oc2ccccc2OC)cc1  Prostaglandin G/H synthase 1 (Ovis aries, UniProt P05979)               IC50          > 1 µM
2  CCCC/C(=C\c1cc(OCc2ccc(C(F)(F)F)cc2)ccc1OCc1ccc(C(F)(F)F)cc1)C(=O)O  Prostaglandin G/H synthase 1 (Ovis aries, UniProt P05979)               IC50         > 10 µM
3  CC(C)(C)c1cc(/C=N/NC(=O)c2ccccc2)c(O)c(C(C)(C)C)c1  Prostaglandin G/H synthase 1 (Ovis aries, UniProt P05979)               IC50         25.5 µM

Exercise: State its IC50: C=CCC1=C[C@@]2(OC)[C@@H](C)[C@H](c3cc(OC)c(OC)c(OC)c3)[C@](OC)([C@H]1O)[C@H]2O
Solution: 74.6 µM

Exercise: Give recorded IC50. COc1cc(C=O)cc2c(C)c(-c3ccc4c(c3)OCO4)oc12
Solution: 123 µM

Exercise: Look up IC50 of COc1ccc(C2CC(c3ccco3)=NN2c2ccc(S(N)(=O)=O)cc2)cc1 (configuration not stated) and report it.
Solution: 6.74 µM

Exercise: Identify measured IC50 corresponding to Fc1ccc(-c2nn(-c3ccccc3)cc2-c2nnc(-c3ccncc3)o2)cc1
Solution: > 100 µM

Exercise: For CS(=O)(=O)c1ccc([C@@H]2[C@H](Oc3ccccc3)C(=O)N2c2ccc(Cl)cc2)cc1 (relative stereo) , write its IC50.
Solution: 18.3 µM

* * *

- EXPERIMENTAL_TARGET: Prostaglandin G/H synthase 1 (Ovis aries)
- Sequence (P05979 whole entry): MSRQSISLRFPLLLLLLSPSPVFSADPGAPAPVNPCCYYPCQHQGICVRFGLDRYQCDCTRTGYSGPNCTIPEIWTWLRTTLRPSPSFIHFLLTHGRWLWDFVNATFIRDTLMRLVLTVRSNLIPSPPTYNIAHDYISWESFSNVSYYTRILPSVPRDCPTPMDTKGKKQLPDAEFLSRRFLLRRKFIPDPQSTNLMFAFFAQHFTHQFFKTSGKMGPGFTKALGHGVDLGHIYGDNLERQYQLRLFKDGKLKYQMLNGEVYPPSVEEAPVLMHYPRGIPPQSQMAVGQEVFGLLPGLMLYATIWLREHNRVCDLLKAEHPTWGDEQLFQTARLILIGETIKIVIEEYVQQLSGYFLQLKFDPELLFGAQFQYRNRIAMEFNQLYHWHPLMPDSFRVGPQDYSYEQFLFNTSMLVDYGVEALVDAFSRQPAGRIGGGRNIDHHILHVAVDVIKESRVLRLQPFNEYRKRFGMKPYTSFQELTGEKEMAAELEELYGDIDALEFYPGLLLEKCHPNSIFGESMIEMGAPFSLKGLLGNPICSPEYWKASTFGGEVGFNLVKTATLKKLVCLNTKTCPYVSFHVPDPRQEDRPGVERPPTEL
pIC50: −log10 of the molar value.
Study the reported pIC50 values for Prostaglandin G/H synthase 1 (Ovis aries) given below; they originate from different publications.

Sample answers from the record:
                                   compound                       experimental_target  value_observed
0      Cc1ccc(C2=C(c3cccc(F)c3)C(=O)OC2)cc1  Prostaglandin G/H synthase 1 (Ovis aries)          < 4.60
1  NS(=O)(=O)c1ccc(-c2cc(C(F)(F)F)nc(NCc3ccc(I)cc3)n2)cc1  Prostaglandin G/H synthase 1 (Ovis aries)          < 4.00
2  CC(C)(C)c1cc(/C=N/NC(=O)c2ccncc2)c(O)c(C(C)(C)C)c1  Prostaglandin G/H synthase 1 (Ovis aries)          < 3.52
3  NS(=O)(=O)c1ccc(-n2nc(CCC(=O)O)cc2-c2ccc(I)cc2)cc1  Prostaglandin G/H synthase 1 (Ovis aries)          < 5.40
4  O=C(O)CSc1nc(OCCc2ccccc2)cc(OCCc2ccccc2)n1  Prostaglandin G/H synthase 1 (Ovis aries)          < 5.00

Exercise: Lab note: Prostaglandin G/H synthase 1 (Ovis aries) assay, enter pIC50 for CCCSc1nnc(-c2cc(C(C)C)c(O)c(C(C)C)c2)s1 here
Solution: < 4.70

Exercise: Please tell me the measured pIC50 for COc1ccc2c(c1)c(CC(=O)OC13CC4CC(CC(C4)C1)C3)c(C)n2C(=O)c1ccc(Cl)cc1 ; system: Prostaglandin G/H synthase 1 (Ovis aries).
Solution: < 4.60

Exercise: Answer with pIC50 of CC(C)(C)c1cc(-c2nnc(O)o2)cc(C(C)(C)C)c1O measured for Prostaglandin G/H synthase 1 (Ovis aries).
Solution: < 4.70

Exercise: Report value: pIC50, system: Prostaglandin G/H synthase 1 (Ovis aries), compound: CC(C)Sc1nnc(-c2cc(C(C)C)c(O)c(C(C)C)c2)s1
Solution: < 4.70

Exercise: Lab note: Prostaglandin G/H synthase 1 (Ovis aries) assay, enter pIC50 for O=C(NCCOc1nc(Cl)nc(Nc2ccc(N3CCOCC3=O)cc2)n1)c1ccc(Cl)s1 here
Solution: < 5.00

Exercise: Provide measured pIC50 on Prostaglandin G/H synthase 1 (Ovis aries) for CCCCC(Sc1nc(Cl)cc(Nc2cccc(C)c2C)n1)C(=O)O (stereo not drawn) please.
Solution: < 5.00

Exercise: Given COc1ccc2cc(C(C)C(=O)NN3C(=O)CCC3=O)ccc2c1 (stereo not drawn) , report its pIC50 on Prostaglandin G/H synthase 1 (Ovis aries).
Solution: < 4.60

Exercise: Using Prostaglandin G/H synthase 1 (Ovis aries) as the test system, report measured pIC50 of CS(=O)(=O)c1ccc(C(=O)/C=C/c2c[nH]c3ccc(Cl)cc23)cc1 .
Solution: < 4.56

Exercise: # return pIC50 for CC/C(=C(\c1ccccc1)c1ccc(S(C)(=O)=O)cc1)c1ccccc1 , test system: Prostaglandin G/H synthase 1 (Ovis aries)
Solution: < 4.00

Exercise: Under Prostaglandin G/H synthase 1 (Ovis aries): report pIC50 of Cc1nc2c(c(C)c1O)CNC(=O)N2 .
Solution: < 3.00

Exercise: Provide pIC50, system Prostaglandin G/H synthase 1 (Ovis aries), entry COc1ccc2c(c1)c(CC(=O)N[C@@H](CO)Cc1ccccc1)c(C)n2C(=O)c1ccc(Cl)cc1
Solution: < 4.30

Exercise: Report pIC50 under test system Prostaglandin G/H synthase 1 (Ovis aries) for COc1ccc(/C=C2\C(c3ccc(Cl)cc3)=NN=C2C(F)(F)F)cc1OC .
Solution: < 4.30

Exercise: Look up and report pIC50, with Prostaglandin G/H synthase 1 (Ovis aries) as system, for CSc1ccccc1OC(C)=O
Solution: < 2.30
